Let's look at some sequences and their measured PBM binding z-score.
# Tested on: PXR homodimer (NR concentration 270 nM)
# method: PBM binding z-score (relative to random genomic background probes); higher = stronger binding; sequences stand for … in GC…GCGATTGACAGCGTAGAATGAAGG
measure-name: PBM binding z-score

• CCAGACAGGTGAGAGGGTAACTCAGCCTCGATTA = -0.117
• GCTAATTGGTCAGTAAAAGGTCACACACCGGTCG = 1.25
• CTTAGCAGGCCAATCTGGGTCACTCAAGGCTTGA = -0.63
• GCGACTGGGGCATCAGCAGGTTACCATCACTTAA = -0.641
• ATCGAAAGGTCGGGGTGAGTATAGAGAAAGGGAA = 1.39
• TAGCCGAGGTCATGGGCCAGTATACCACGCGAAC = 0.728
• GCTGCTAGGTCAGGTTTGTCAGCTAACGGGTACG = -0.27
• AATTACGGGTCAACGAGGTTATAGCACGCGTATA = 3.27
• GCGCCTGGGGCATCAGCAGGTTACCATAACTTAA = -0.879
• AGAATGAGGTTACCCAAGATCAGGGAAACGCTTG = -0.185
• CAAACTAGGTCACGAAGGGTCAAAGTCGAATGAC = 1
• TCTTGTAGATGAAGCAGGTTAAGAAAGCCTGAGT = 0.164
